src = patent EP4613329A1

molecular target: BRD2 (BD1) (Homo sapiens, UniProt P25440); construct: a bromodomain of BRD2 (BD1) and BRD3 (BD1), one of the BRD protein family; assay: Binding inhibitory effect on BRD2 protein (AlphaScreen, GST-BRD2 (BD1) / biotinylated acetyl-histone H4 peptide); conditions: 100 nM GST-BRD2 (BD1), 100 nM biotinylated acetyl-histone H4 (Lys5, 8, 12, 16) peptide
Sequence (P25440 74-180 limits assumed, species assumed): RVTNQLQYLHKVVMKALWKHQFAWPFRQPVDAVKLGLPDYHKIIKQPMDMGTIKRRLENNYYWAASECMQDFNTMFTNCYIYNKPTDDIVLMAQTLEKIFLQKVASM
pIC50: −log10 of the molar value.
measuredProperty: pIC50

CN1CCN(CCNCc2ccc(-c3ccccc3-c3cccc4c3CN(C)C4=O)o2)CC1	4.94
CN(C)CCNCc1ccc(-c2ccccc2-c2cccc3c2CN(C)C3=O)o1	4.91
CCC1(C(=O)NC)CCCN(Cc2oc(-c3ccccc3-c3cccc4c3CN(C)C4=O)cc2C)C1 (stereo not drawn)	4.98
